target: Cyclic GMP-AMP synthase (Homo sapiens); test: Primary biochemical luminescence assay for human cyclic GMP-AMP synthase inhibitors (AID 1259398); settings: recombinant h-cGAS, ATP depletion, Kinase-Glo luminescence; at 12.5 µM; hits give high values;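 further: 0% = vehicle reaction and 100% = reaction without DNA for no activity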
Hit rate of the full screen: of about 290,000 compounds, about 230 (0.079%) were called active. Shown is part of a subset that was picked to be rich in actives.
In this section, each of the compounds is paired with its reported inhibition.
Answer with a number only, understood to be in %.

May I ask what inhibition has been recorded for "COCCNC(=O)c1ccc(CSc2nnc(Cc3ccccc3)n2-c2ccc(OC)cc2)cc1" ? 5.06

Item CC(NC(=O)c1ccc(Br)cc1F)C(=O)N1CCOCC1 (centres undefined) has what recorded inhibition? -5.97

Quick one: inhibition of "Cc1ccc(Nc2nc(N3CCN(c4ccc(F)cc4)CC3)nc3nccnc23)c(C)c1" ? -2.31

Name the recorded inhibition for "N#CCCN(CCC#N)Cn1c(=O)oc2cc(Br)ccc21" . -6.19

Item "O=C(NNc1cccc(Cl)c1)[C@@H]1CCCN1c1nccc(Nc2ccccc2)n1" has what recorded inhibition? -0.74

Form field: reported inhibition of "C=CCN(CC(=O)Nc1ccccc1C#N)S(=O)(=O)c1c(C)cc(C)cc1C" -5.26

Fill in the blank: the reported inhibition of "COc1ccc(-c2nc3ccccc3c(=O)n2Cc2ccc(F)cc2)c(OC)c1OC" is ____. -5.68

Which inhibition value belongs to "CCOC(=NCc1ccccc1)NC(=O)c1cccc(C(F)(F)F)c1" ? -4.46

Query: inhibition; subject: "NS(=O)(=O)c1ccc(CNc2ccc3ncc(-c4ccc(Oc5ccccc5)cc4)n3n2)cc1" -8.75

---

target: Cyclic GMP-AMP synthase (Homo sapiens) (UniProt Q8N884); test: Primary biochemical luminescence assay for human cyclic GMP-AMP synthase inhibitors (AID 1259398); conditions: recombinant h-cGAS, ATP depletion, Kinase-Glo luminescence; at 12.5 µM; hits give high values;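 further: 0% = vehicle reaction and 100% = reaction without DNA for no activity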
Sequence (Q8N884 whole entry, looked up): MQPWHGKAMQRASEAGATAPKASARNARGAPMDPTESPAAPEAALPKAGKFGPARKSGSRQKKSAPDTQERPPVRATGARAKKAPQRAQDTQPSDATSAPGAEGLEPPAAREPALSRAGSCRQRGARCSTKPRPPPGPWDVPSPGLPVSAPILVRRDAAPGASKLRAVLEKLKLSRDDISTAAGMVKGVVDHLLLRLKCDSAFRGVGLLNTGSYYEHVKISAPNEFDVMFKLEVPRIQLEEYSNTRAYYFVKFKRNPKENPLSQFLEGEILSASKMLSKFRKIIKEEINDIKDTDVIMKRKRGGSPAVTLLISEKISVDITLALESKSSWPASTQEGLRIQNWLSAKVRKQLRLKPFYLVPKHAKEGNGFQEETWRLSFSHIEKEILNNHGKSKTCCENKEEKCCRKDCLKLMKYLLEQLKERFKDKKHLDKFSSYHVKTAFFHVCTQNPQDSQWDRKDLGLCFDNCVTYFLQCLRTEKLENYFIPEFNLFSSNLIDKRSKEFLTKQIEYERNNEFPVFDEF
Out of some 290,000 compounds screened, about 230 (0.079%) were called active. Many of the other results were omitted from the sample, so actives are more common in it than they were.
quantity name: inhibition (%)
Dear colleague, please return just the value in %, with no unit written.

Use these answered entries as a reference point.
                                   molecule  assay_value
0     COc1ccc2cnn(-c3cccc(Cl)c3)c(=O)c2c1OC       -0.243
1  O=C(NC1CCN(c2ccccc2C(=O)NCc2cccc(C(F)(F)F)c2)CC1)c1ccccc1F        -3.47

Which inhibition is listed for CC(=O)c1cccc(N2C(=O)C3C4C=CC(C5CC45)C3C2=O)c1 (stereo not given) ? -3.94

What does the record list as inhibition for "CC(C)CSc1nc2c(c(=O)n(C)c(=O)n2C)n1CC=Cc1ccccc1" ? -0.843

Fill in: inhibition of "O=C(c1cc(Cl)c2nc3ccccn3c(=O)c2c1)c1cc(F)ccc1O" is ___ -5.02

---

target: Cyclic GMP-AMP synthase (Homo sapiens); experiment: Primary biochemical luminescence assay for human cyclic GMP-AMP synthase inhibitors (AID 1259398); settings: recombinant h-cGAS, ATP depletion, Kinase-Glo luminescence; at 12.5 µM; hits give high values;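 further: 0% = vehicle reaction and 100% = reaction without DNA for no activity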
Screen size: about 290,000 compounds; about 230 (0.079%) were called active. For the sample, actives were picked, then their nearest neighbours and some compounds at random.
Recorded measurements of inhibition, one per entry
Output spec: scalar in %, unitless text.

As a guide, the following entries are already answered.
                                   molecule  unit_annotation  assay_value
0  Cc1cc(-c2n[nH]c(=O)n2CCc2ccc(F)cc2)n(C)n1                %          2.4
1  Cc1n[nH]c(=O)c2c(NC(=O)CSc3nnc(C)n3C3CC3)oc(C)c12                %        -6.69
2  COCCNC(=O)Cn1nc2c(c1NC(=O)c1cc(OC)cc(OC)c1)CSC2                %        -4.38

# inhibition lookup, item "Cc1nn(C)c2ncc(C(=O)NCCn3cnnc3C(C)C)cc12" 1.28

Fill in: inhibition of CCOc1ccc(N2CCN(C(=O)CCc3ccccc3)C(C)C2=O)cc1 (stereo unspecified) is ___ -2.37

What value of measured inhibition is listed for CS(=O)(=O)N1CCCC(NCc2ccc(-c3ccc(C(F)(F)F)cc3)o2)C1 (stereo unspecified) ? -7.61

---

target: Cyclic GMP-AMP synthase (Homo sapiens) (UniProt Q8N884); assay: Primary biochemical luminescence assay for human cyclic GMP-AMP synthase inhibitors (AID 1259398); settings: recombinant h-cGAS, ATP depletion, Kinase-Glo luminescence; at 12.5 µM;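 further: 0% = vehicle reaction and 100% = reaction without DNA for no activity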
About 230 (0.079%) of roughly 290,000 compounds were called active. Cut-off read from the data, not from the text of the source: active = inhibition above about 40%; inactive = the rest. This is one part of a sample in which actives are shown more often than they occur.
Bench note: report the call from active, inactive

Reference set, count: 5
>>> df
                                   molecule     group
0            O=C(NCCc1ccco1)c1ccc2c(c1)OCO2  inactive
1  CN1CCN(Cc2cc(F)ccc2-n2cccn2)CC1CCO (stereo unspecified)  inactive
2  O=C(NCCc1ccccc1)c1cc(NC(=O)C(c2ccccc2)c2ccccc2)ccc1N1CCCCC1  inactive
3       CN(Cc1nc2ccccc2n1C)C(=O)[C@H]1CCCO1  inactive
4                      O=C(O)C=Cc1ccc(Br)s1  inactive

What outcome does the record of this test show for "CS(=O)(=O)c1ccc(Oc2ccc3sc(=O)oc3c2)c([N+](=O)[O-])c1" ? inactive

Fill in: this test's call for "O=C(CCSCc1ccccn1)NCc1ccc(Br)s1" is ___ inactive

# fetch the recorded call for "COc1cccc(-c2nn(Cc3ccccc3)c(=O)c3nc(C)sc23)c1" here inactive

// param item: "O=C(O)CSc1nnc(CCc2ccccc2)n1-c1cccnc1" ; yields the recorded call inactive

Tell me the recorded outcome of this test for "O=[N+]([O-])c1cc(S(=O)(=O)C(F)(F)F)ccc1Oc1ccc2oc3c(c2c1)CCCC3" . active

State the result this test recorded for O=C1CN(C(=O)C2CCCC2)CC(O)CN1Cc1cccc(F)c1 (stereo unspecified) . inactive

---

biological target: Cyclic GMP-AMP synthase (Homo sapiens); assay: Primary biochemical luminescence assay for human cyclic GMP-AMP synthase inhibitors (AID 1259398); conditions: recombinant h-cGAS, ATP depletion, Kinase-Glo luminescence; at 12.5 µM;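 further: 0% = vehicle reaction and 100% = reaction without DNA for no activity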
Hit rate of the full screen: of about 290,000 compounds, about 230 (0.079%) were called active. Rule as the data show it: active = inhibition above about 40%; inactive = the rest. The sample holds actives, similar compounds and a random draw of the others, so the mix is not that of the screen.
Select the correct class. Options are 1 (yes) (active), 0 (no) (inactive) and nothing else.

Solved cases below.
                                   molecule   group
0  O=C(NC1CCC1)c1ccc(-c2cc(-c3cccc(C(F)(F)F)c3)n[nH]2)cc1  0 (no)
1  CC1CCc2c(sc(NC(=O)c3cccs3)c2C(=O)Nc2ccc(Cl)cc2)C1 (configuration not stated)  0 (no)
2   Cc1cc(=O)n(-c2ccc(S(=O)(=O)O)cc2C)[nH]1  0 (no)
3  COc1cc2c(cc1OC)C(C(C)NS(=O)(=O)c1ccccc1)N(Cc1ccccc1F)CC2 (configuration not stated)  0 (no)

Status in this test for "Cc1cc(C)n(CC(=O)N2CC[C@@H]3CN(S(C)(=O)=O)[C@@H]3C2)n1" ? 1 (yes)

Could you kindly confirm the outcome this assay logged for "COc1cn(CC(=O)NCc2ccc3c(c2)OCO3)c(CSc2ncccn2)cc1=O" ? 0 (no)

Returns: the outcome recorded for "O=C(O)c1cc(-c2ccco2)nn1-c1ccccc1Cl" in this assay. 0 (no)

Check the results log: what was the call for "Cc1cc(C(=O)O)ccc1S(=O)(=O)N(C)c1cc(F)ccc1F" ? 0 (no)

Could you please tell me the result logged for "COc1cc(C(=O)Nc2oc3ccccc3c(=O)c2-c2ccccc2)cc(OC)c1OC" in this assay? 0 (no)

What call does the record list for CCn1nc(C(=O)O)c2c1CCC(N(C)CCn1ccnc1C)C2 (configuration not stated) ? 0 (no)

What call does the record list for Cc1cc(C(=O)N2CCC(N(C)C)C2)ccc1NC(=O)c1ccco1 (configuration not stated) ? 0 (no)

So what was the verdict on "Fc1cc(F)cc(-c2cncc(COc3ccc(F)cc3F)c2)c1" in this test? 0 (no)

---

target: Cyclic GMP-AMP synthase (Homo sapiens); assay: Primary biochemical luminescence assay for human cyclic GMP-AMP synthase inhibitors (AID 1259398); conditions: recombinant h-cGAS, ATP depletion, Kinase-Glo luminescence; at 12.5 µM;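 further: 0% = vehicle reaction and 100% = reaction without DNA for no activity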
In all, about 290,000 compounds went through this assay and about 230 (0.079%) were called active. Rule as the data show it: active = inhibition above about 40%; inactive = the rest. What follows is part of a selection rich in actives, with near analogues and random picks from the rest.
Respond using exactly one of the listed classes: active, inactive

Answered cases to consult:
                                   compound     group
0  CC1CCCN(c2nn3c(C(=O)NCCN4CCCCCC4)cc(=O)nc3s2)C1 (centres undefined)  inactive
1  CCOc1cc(Br)cc(/C=N\Nc2nc(N3CCCCC3)nc(N3CCCCC3)n2)c1O  inactive
2            CC(C)CNC(=O)c1c(O)nc2sccn2c1=O  inactive
3  Nc1cc(-c2cccc(Cl)c2)nn1-c1ccc(C(=O)N2CCOCC2)cc1  inactive
4  COc1ccc(CCN(Cc2ccc(C)s2)C(=O)CN(CC2CCCO2)S(=O)(=O)c2c(C)cc(C)cc2C)cc1OC (centres undefined)  inactive
5  COCCCN(CC(=O)N(Cc1ccc2c(c1)OCO2)Cc1cccs1)C(=O)C1C[C@H]1c1ccccc1 (some centres undefined)  inactive

Status in this test for "Cn1cc(CN2CCN(c3ccc(Cl)cn3)CC2)c(-c2ccc3c(c2)OCCO3)n1" ? inactive

Please share the test call associated with "C[N+](C)(CCCCCC[N+](C)(C)CCCN1C(=O)c2cccc3cccc(c23)C1=O)CCCN1C(=O)c2cccc3cccc(c23)C1=O" . active

# outcome recorded in this test, key = "O=C1c2cccc3cccc(c23)C(=O)N1CCCCCc1n[nH]c(=S)o1" inactive

The origin of these recorded values is PubChem BioAssay AID1259398.
